Test system: ANGPTL3 gene
Assay: Example 7: serum total cholesterol in mice
Type: in vivo, C57bl/6 mice
Design: key: ratio: (level/pre-treatment day -1 level) ÷ mean of D5W control group
Details: Day 8, 0.5 mg/kg single SC injection on day 1, n=3
In the oligonucleotide strings, read from the 5' end, every base follows the letter of its sugar. An asterisk marks phosphorothioate; unmarked linkages are phosphodiester. Other units and linkages are bracketed, terminal groups are in braces. A string of capitals states the bases alone. {NAG37} = tridentate N-acetyl-galactosamine targeting ligand, structure (NAG37)s; [invAb] = inverted abasic unit; m = 2'-O-methyl; f = 2'-fluoro
Property: Avg Total Chol, normalized to pre-treatment and control
Output: the number by itself.

Query: API: value(readout=Avg Total Chol, normalized to pre-treatment and control, system=ANGPTL3 gene) for record AD05418: RNAi agent duplex: antisense AM07159-AS, sense AM07158-SS (antisense mU*fU*mU*fGmAfAmUfUmAfAmUfGmUfCmCfAmUfGmGfG*mU; sense {NAG37}*[invAb]*mAmCmCmCmAmUmGmGfAfCfAmUmUmAmAmUmUmCmAmAmA*[invAb])
Result: 0.950

---

Below, each entry is listed alongside its reported Avg TG, normalized to pre-treatment and control.
System: ANGPTL3 gene
Experiment: Example 7: serum triglycerides in mice
Type: in vivo, C57bl/6 mice
Set-up: key: ratio: (level/pre-treatment day -1 level) ÷ mean of D5W control group
Details: Day 22, 0.5 mg/kg single SC injection on day 1, n=3
In the oligonucleotide strings, read from the 5' end, every base follows the letter of its sugar. An asterisk marks phosphorothioate; unmarked linkages are phosphodiester. Other units and linkages are bracketed, terminal groups are in braces. A string of capitals states the bases alone. {NAG37} = tridentate N-acetyl-galactosamine targeting ligand, structure (NAG37)s; [invAb] = inverted abasic unit; m = 2'-O-methyl; f = 2'-fluoro
Output: the number by itself.

AD05777: RNAi agent duplex: antisense AM07235-AS, sense AM07610-SS (antisense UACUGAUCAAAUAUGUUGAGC; sense GCUCAACNUNUUUGAUCAGUA; (NAG37)s GalNAc ligand; RNAi agent antisense strand modified sequence; RNAi agent sense strand modified sequence; modified_base 8, 10 n = 2′-O-methyl-2-aminoadenosine-3′-phosphate)
0.700

Turning to the following substance.
Query: Tell me the measured Avg TG, normalized to pre-treatment and control of AD05308: RNAi agent duplex: antisense AM07003-AS, sense AM07002-SS (chain 1 mU*fG*mU*fUmGfAmAfUmUfAmAfUmGfUmCfCmAfUmGfG*mA; chain 2 {NAG37}*[invAb]*mUmCmCmAmUmGmGmAfCfAfUmUmAmAmUmUmCmAmAmCmA*[invAb]) , please.
Result: 0.839

---

Test system: ANGPTL3 gene
Assay: Example 4: serum triglycerides in mice
Assay type: in vivo
Conditions: Day 22, 1.0 mg/kg single subcutaneous dose on day 1, female C57bl/6 mice
In the oligonucleotide strings, read from the 5' end, every base follows the letter of its sugar. An asterisk marks phosphorothioate; unmarked linkages are phosphodiester. Other units and linkages are bracketed, terminal groups are in braces. A string of capitals states the bases alone. {NAG37} = tridentate N-acetyl-galactosamine targeting ligand, structure (NAG37)s; [invAb] = inverted abasic unit; m = 2'-O-methyl; f = 2'-fluoro
Below, each entry is listed alongside its reported Avg TG (Average Triglycerides Normalized to Pre-Treatment and Control).

Previously resolved entries follow.
AD05487: RNAi agent duplex: antisense AM07233-AS, sense AM07232-SS (antisense mU*fA*mC*fUmGfAmUfCmAfAmAfUmAfUmGfUmUfGmAfG*mU; sense {NAG37}*[invAb]*mAmCmUmCmAmAmCmAfUfAfUmUmUmGmAmUmCmAmGmUmA*[invAb])
0.761
AD05308: RNAi agent duplex: antisense AM07003-AS, sense AM07002-SS (chain 1 mU*fG*mU*fUmGfAmAfUmUfAmAfUmGfUmCfCmAfUmGfG*mA; chain 2 {NAG37}*[invAb]*mUmCmCmAmUmGmGmAfCfAfUmUmAmAmUmUmCmAmAmCmA*[invAb])
1.152
AD05488: RNAi agent duplex: antisense AM07235-AS, sense AM07234-SS (antisense mU*fA*mC*fUmGfAmUfCmAfAmAfUmAfUmGfUmUfGmAfG*mC; sense {NAG37}*[invAb]*mGmCmUmCmAmAmCmAfUfAfUmUmUmGmAmUmCmAmGmUmA*[invAb])
0.837

Turning to the following substance.
Query: Tell me the measured Avg TG (Average Triglycerides Normalized to Pre-Treatment and Control) of AD05418: RNAi agent duplex: antisense AM07159-AS, sense AM07158-SS (antisense mU*fU*mU*fGmAfAmUfUmAfAmUfGmUfCmCfAmUfGmGfG*mU; sense {NAG37}*[invAb]*mAmCmCmCmAmUmGmGfAfCfAmUmUmAmAmUmUmCmAmAmA*[invAb]) , please.
Result: 1.079

---

Tested on: ANGPTL3 gene
Assay: Example 7: serum total cholesterol in mice
Type: in vivo, C57bl/6 mice
Set-up: key: ratio: (level/pre-treatment day -1 level) ÷ mean of D5W control group
Settings: Day 15, 0.5 mg/kg single SC injection on day 1, n=3
In the oligonucleotide strings, read from the 5' end, every base follows the letter of its sugar. An asterisk marks phosphorothioate; unmarked linkages are phosphodiester. Other units and linkages are bracketed, terminal groups are in braces. A string of capitals states the bases alone. {NAG37} = tridentate N-acetyl-galactosamine targeting ligand, structure (NAG37)s; [invAb] = inverted abasic unit; m = 2'-O-methyl; f = 2'-fluoro
Property: Avg Total Chol, normalized to pre-treatment and control

AD05775: RNAi agent duplex: antisense AM07235-AS, sense AM07608-SS (antisense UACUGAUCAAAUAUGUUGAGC; sense GCUCAACAUNUUUGAUCAGUA; (NAG37)s GalNAc ligand; RNAi agent antisense strand modified sequence; RNAi agent sense strand modified sequence; modified_base 10 n = 2′-O-methyl-2-aminoadenosine-3′-phosphate)
0.777

Query: Tell me the measured Avg Total Chol, normalized to pre-treatment and control of AD05488: RNAi agent duplex: antisense AM07235-AS, sense AM07234-SS (antisense mU*fA*mC*fUmGfAmUfCmAfAmAfUmAfUmGfUmUfGmAfG*mC; sense {NAG37}*[invAb]*mGmCmUmCmAmAmCmAfUfAfUmUmUmGmAmUmCmAmGmUmA*[invAb]) , please.
Result: 0.810

---

System: ANGPTL3 gene
Assay: Example 7: serum LDL in mice
Type: in vivo
Design: key: ratio: (level/pre-treatment day -1 level) ÷ mean of D5W control group
Conditions: Day 29; 0.5 mg/kg single SC injection day 1; female C57bl/6 mice, n=3; ratio to D5W control
In the oligonucleotide strings, read from the 5' end, every base follows the letter of its sugar. An asterisk marks phosphorothioate; unmarked linkages are phosphodiester. Other units and linkages are bracketed, terminal groups are in braces. A string of capitals states the bases alone. {NAG37} = tridentate N-acetyl-galactosamine targeting ligand, structure (NAG37)s; [invAb] = inverted abasic unit; m = 2'-O-methyl; f = 2'-fluoro
Property: Avg LDL, normalized to pre-treatment and control
Output: the number by itself.

Query: Tell me the measured Avg LDL, normalized to pre-treatment and control of AD05488: RNAi agent duplex: antisense AM07235-AS, sense AM07234-SS (antisense mU*fA*mC*fUmGfAmUfCmAfAmAfUmAfUmGfUmUfGmAfG*mC; sense {NAG37}*[invAb]*mGmCmUmCmAmAmCmAfUfAfUmUmUmGmAmUmCmAmGmUmA*[invAb]) , please.
Result: 1.055

---

Test system: ANGPTL3 gene
Assay: Example 4: serum total cholesterol in mice
Type: in vivo, C57bl/6 mice
Details: Day 22, 1.0 mg/kg single SC injection on day 1, n=3
In the oligonucleotide strings, read from the 5' end, every base follows the letter of its sugar. An asterisk marks phosphorothioate; unmarked linkages are phosphodiester. Other units and linkages are bracketed, terminal groups are in braces. A string of capitals states the bases alone. {NAG37} = tridentate N-acetyl-galactosamine targeting ligand, structure (NAG37)s; [invAb] = inverted abasic unit; m = 2'-O-methyl; f = 2'-fluoro
Property: Avg Total Chol, normalized to pre-treatment and control
Output: the number by itself.

AD05488: RNAi agent duplex: antisense AM07235-AS, sense AM07234-SS (antisense mU*fA*mC*fUmGfAmUfCmAfAmAfUmAfUmGfUmUfGmAfG*mC; sense {NAG37}*[invAb]*mGmCmUmCmAmAmCmAfUfAfUmUmUmGmAmUmCmAmGmUmA*[invAb])
0.759
AD05418: RNAi agent duplex: antisense AM07159-AS, sense AM07158-SS (antisense mU*fU*mU*fGmAfAmUfUmAfAmUfGmUfCmCfAmUfGmGfG*mU; sense {NAG37}*[invAb]*mAmCmCmCmAmUmGmGfAfCfAmUmUmAmAmUmUmCmAmAmA*[invAb])
0.915
AD05487: RNAi agent duplex: antisense AM07233-AS, sense AM07232-SS (antisense mU*fA*mC*fUmGfAmUfCmAfAmAfUmAfUmGfUmUfGmAfG*mU; sense {NAG37}*[invAb]*mAmCmUmCmAmAmCmAfUfAfUmUmUmGmAmUmCmAmGmUmA*[invAb])
0.697

Turning to the following substance.
Query: Tell me the measured Avg Total Chol, normalized to pre-treatment and control of AD05308: RNAi agent duplex: antisense AM07003-AS, sense AM07002-SS (chain 1 mU*fG*mU*fUmGfAmAfUmUfAmAfUmGfUmCfCmAfUmGfG*mA; chain 2 {NAG37}*[invAb]*mUmCmCmAmUmGmGmAfCfAfUmUmAmAmUmUmCmAmAmCmA*[invAb]) , please.
Result: 0.770

This collection of values is drawn from patent US12729377B2.
